Origin of the recorded values: patent US20110065760A1

Give measured EC50 at 48 h for each item. Keep answers brief.
assay: WST-1 cytotoxicity assay, PC-3; assay type: cell-based; conditions: human, PC-3 cells (prostate carcinoma); WST-1, 48 h incubation; read-out: EC50 class, cytotoxic effect, CL-3 (PC-3)

Here are 8 molecules together with their reported answers.
> print(dat)
                                   molecule  endpoint.result
1     Oc1ccc(NCc2ccccc2Sc2ccc(Cl)cc2)c(O)c1      10 to 50 µM
2  O=C(NCCc1ccccc1)Nc1cc(Cl)c(O)c(NCc2ccccc2Sc2ccc(Cl)cc2)c1      10 to 50 µM
3  CC(C)(C)c1ccc(Oc2cccc(CNc3cc(Cl)cc(Cl)c3O)c2)cc1      10 to 50 µM
4   Oc1c(Cl)cc(Cl)cc1NCc1cccc(OCc2ccccc2)c1          < 10 µM
5    Oc1c(Cl)cc(Cl)cc1NCc1ccccc1Sc1ccccc1Cl      10 to 50 µM
6  CC(CC(=O)Nc1cc(Cl)c(O)c(Cl)c1)CC(C)(C)C (stereo not drawn)      10 to 50 µM
7  O=C(NCc1ccccc1)Nc1cc(Cl)c(O)c(NCc2ccccc2Sc2ccc(Cl)cc2)c1      10 to 50 µM
8      Oc1c(NCc2ccccc2Sc2ccccc2Cl)ccc(F)c1F      10 to 50 µM

// below: EC50 at 48 h requested for another molecule
In: Quote EC50 at 48 h reported for `Oc1c(NCc2ccccc2Sc2cccc(Cl)c2)ccc(F)c1F` please.
Out: < 10 µM

---

target: LpCyp18 (Legionella pneumophila, UniProt Q5ZRZ4)
Sequence (Q5ZRZ4 1-164): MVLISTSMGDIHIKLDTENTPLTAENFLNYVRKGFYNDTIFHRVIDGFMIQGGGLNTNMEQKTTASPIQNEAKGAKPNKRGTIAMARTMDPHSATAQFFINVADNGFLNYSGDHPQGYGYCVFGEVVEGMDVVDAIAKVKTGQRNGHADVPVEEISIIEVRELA
pIC50: −log10 of the molar value.
Observed Property: pIC50

Below are worked cases with known answers.
> print(dat)
                                   compound  endpoint.result
1  O=C(Cc1ccc2c(c1)OCO2)Nc1cc(Cl)c(O)c(Cl)c1           < 4.00
2  CC(C)(C)CC(C)(C)NC(=O)Nc1cc(Cl)cc(Cl)c1O           < 4.00
3  O=C(Nc1cc(Cl)c(O)c(Cl)c1)NC12CC3CC(CC(C3)C1)C2     4.30 to 5.00
4  CC(C)(C)c1ccc(Oc2cccc(CNc3cc(Cl)cc(Cl)c3O)c2)cc1           < 4.00
5        O=C(Nc1cc(Cl)c(O)c(Cl)c1)NC1CCCCC1           < 4.00
6  Oc1ccc(NCc2ccccc2Sc2ccc(Cl)cc2)c(O)c1 [Compound 1044]     5.00 to 6.00

Lab note: each compound below needs its pIC50 filled in.
1. Cc1c(Cl)cc(NC(=O)Nc2ccccc2)c(O)c1Cl
2. CC(C)(C)NC(=O)Nc1cc(NC(=O)NC2CCCCC2)cc(Cl)c1O
3. Oc1c(Cl)cc(Cl)cc1NCc1ccco1
4. O=C(Nc1cc(Cl)c(O)c(Cl)c1)c1ccccc1
5. O=C(Cc1ccccc1[N+](=O)[O-])Nc1cc(Cl)c(O)c(Cl)c1
6. Cc1c(Cl)cc(NC(=O)NC23CC4CC(CC(C4)C2)C3)c(O)c1Cl
7. O=C(CCc1ccccc1)Nc1cc(Cl)c(O)c(Cl)c1

Out:
1. < 4.00
2. < 4.00
3. < 4.00
4. < 4.00
5. < 4.00
6. 4.30 to 5.00
7. < 4.00

Quick one: give me pIC50 for each item below, same order please.
1. O=C(Nc1cc(Cl)c(O)c(Cl)c1)c1ccc2ccccc2c1
2. O=C(Nc1cc(Cl)c(O)c(Cl)c1)c1ccco1

Out:
< 4.00
< 4.00

Value sought for every listed compound: pIC50.
1. Cc1c(Cl)cc(NC(=S)Nc2ccccc2C(F)(F)F)c(O)c1Cl
2. Oc1c(Cl)cccc1NCc1ccccc1Sc1ccc(Cl)cc1
3. Cc1c(Cl)cc(NC(=O)NC(C)(C)CC(C)(C)C)c(O)c1Cl
4. Oc1c(Cl)cc(Cl)cc1NCc1cccc(Oc2ccc(Cl)cc2)c1

Out:
1. < 4.00
2. < 4.00
3. 4.30 to 5.00
4. < 4.00

Give pIC50 for each listed item.
1. Cc1c(Cl)cc(NCc2ccccc2Sc2ccc(Cl)cc2)c(O)c1Cl
2. Cc1c(Cl)cc(NCc2c(F)cccc2Cl)c(O)c1Cl

Out:
1. < 4.00
2. < 4.00
